Selectivity factor: ratio IC50 submandibular gland to IC50 heart by entry:
- ASSAY_TARGET: muscarinic receptors (heart) (Rattus norvegicus)
- Construct: The whole heart was cut up with scissors; from tissue; host or cells: whole heart of male Sprague-Dawley rats, homogenate
- Sequence (P10980 1-466): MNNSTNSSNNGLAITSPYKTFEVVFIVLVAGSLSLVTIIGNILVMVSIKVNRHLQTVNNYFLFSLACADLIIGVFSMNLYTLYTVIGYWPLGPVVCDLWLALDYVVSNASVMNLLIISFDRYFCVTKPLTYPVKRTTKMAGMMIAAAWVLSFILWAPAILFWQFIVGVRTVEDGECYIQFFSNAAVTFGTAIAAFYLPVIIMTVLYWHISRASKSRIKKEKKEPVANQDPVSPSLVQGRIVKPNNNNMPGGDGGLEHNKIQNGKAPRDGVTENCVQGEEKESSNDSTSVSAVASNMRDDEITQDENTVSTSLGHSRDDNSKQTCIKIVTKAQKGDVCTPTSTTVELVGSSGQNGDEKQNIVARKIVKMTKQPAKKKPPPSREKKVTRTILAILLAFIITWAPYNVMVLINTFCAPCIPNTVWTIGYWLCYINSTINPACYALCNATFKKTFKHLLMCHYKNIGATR
- TEST_PROTOCOL: Receptor binding test in vitro, 3H-NMS displacement, whole heart
- Set-up: species or system rat (male Sprague-Dawley)
// no unit, no text: just the number

>>> meas_value("O=C1Nc2cccnc2N(C(=O)N2CCCC(CCCN3CCCCC3)C2)c2ccccc21 (stereo not shown) [Substance A]")
10
>>> meas_value("O=C1Nc2cccnc2N(C(=O)N2CCCC(CCN3CCCC3)C2)c2ccccc21 (stereo not shown) [Substance D]")
8.3
>>> meas_value("O=C1Nc2ccccc2N(C(=O)N2CCCC(CCN3CCCCC3)C2)c2ncccc21 (stereo not shown) [Substance G]")
10
>>> meas_value("CN(CCC1CCCN(C(=O)N2c3ccccc3C(=O)Nc3cccnc32)C1)C1CCCC1 (stereo not shown) [Substance E]")
10
>>> meas_value("Cl.O=C1Nc2cccnc2N(C(=O)N2CCCC(CCN3CCCCCC3)C2)c2ccccc21 (stereo not shown) [Substance F]")
10

[in] Can you look up Selectivity factor: ratio IC50 submandibular gland to IC50 heart on muscarinic receptors (heart) (Rattus norvegicus) for CS(=O)(=O)O.O=C1Nc2cccnc2N(C(=O)N2CCCC(CCN3CCCCC3)C2)c2ccccc21 (stereo not shown) [Substance C] ?
[out] 10

[in] Recall the recorded Selectivity factor: ratio IC50 submandibular gland to IC50 heart for Cl.O=C1Nc2cccnc2N(C(=O)N2CCCC(CCCN3CCCC3)C2)c2ccccc21 (stereo not shown) [Substance B] with muscarinic receptors (heart) (Rattus norvegicus) and state it.
[out] 4

* * *

IC50 by entry:
- ASSAY_TARGET: muscarinic receptors (submandibular gland) (Rattus norvegicus)
- Sequence (P08483 whole entry): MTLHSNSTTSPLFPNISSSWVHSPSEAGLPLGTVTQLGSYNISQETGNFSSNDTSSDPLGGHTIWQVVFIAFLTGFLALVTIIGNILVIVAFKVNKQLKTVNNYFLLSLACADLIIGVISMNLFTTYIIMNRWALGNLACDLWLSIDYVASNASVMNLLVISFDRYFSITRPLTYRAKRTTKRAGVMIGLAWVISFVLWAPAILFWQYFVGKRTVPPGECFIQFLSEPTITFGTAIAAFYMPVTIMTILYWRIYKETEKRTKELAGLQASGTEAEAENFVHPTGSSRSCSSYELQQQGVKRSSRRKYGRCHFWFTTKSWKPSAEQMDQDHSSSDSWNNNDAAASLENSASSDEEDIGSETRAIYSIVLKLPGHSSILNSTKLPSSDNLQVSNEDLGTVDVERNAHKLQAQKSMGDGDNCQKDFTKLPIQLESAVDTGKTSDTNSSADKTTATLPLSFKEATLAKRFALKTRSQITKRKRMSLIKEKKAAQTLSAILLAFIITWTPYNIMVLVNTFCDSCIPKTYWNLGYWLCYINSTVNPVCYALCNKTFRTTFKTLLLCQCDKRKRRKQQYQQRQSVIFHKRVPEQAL
- TEST_PROTOCOL: biochemical
- Format: binding, rat (male Sprague-Dawley)
- PARTICULARS: in vitro, 0.3 nmolar 3H-NMS, 45 min, 30° C., read-out: log IC50, Submandibular gland (converted)

>>> meas_value("CN(CCC1CCCN(C(=O)N2c3ccccc3C(=O)Nc3cccnc32)C1)C1CCCC1 (stereo not shown) [Substance E]")
"30.2 nM"
>>> meas_value("CS(=O)(=O)O.O=C1Nc2cccnc2N(C(=O)N2CCCC(CCN3CCCCC3)C2)c2ccccc21 (stereo not shown) [Substance C]")
"30.2 nM"
>>> meas_value("Cl.O=C1Nc2cccnc2N(C(=O)N2CCCC(CCN3CCCCCC3)C2)c2ccccc21 (stereo not shown) [Substance F]")
"30.2 nM"
>>> meas_value("O=C1Nc2cccnc2N(C(=O)N2CCCC(CCN3CCCC3)C2)c2ccccc21 (stereo not shown) [Substance D]")
"50.1 nM"
>>> meas_value("Cl.O=C1Nc2cccnc2N(C(=O)N2CCCC(CCCN3CCCC3)C2)c2ccccc21 (stereo not shown) [Substance B]")
"39.8 nM"

[in] May I ask what IC50 has been recorded for O=C1Nc2ccccc2N(C(=O)N2CCCC(CCN3CCCCC3)C2)c2ncccc21 (stereo not shown) [Substance G] ?
[out] 39.8 nM

[in] IC50 lookup needed for O=C1Nc2cccnc2N(C(=O)N2CCCC(CCCN3CCCCC3)C2)c2ccccc21 (stereo not shown) [Substance A] , thanks.
[out] 20 nM
